Recorded values, source PubChem BioAssay (NCI).

Examples of compounds with documented GI50 follow.
System: A498 renal
assay-name: NCI tumour cell line growth inhibition, 48 h

| compound | GI50 |
| --- | --- |
| COc1ccc(Sc2nc3cc(N)cc(N)c3nc2-c2ccccc2)cc1 | > 100 µM |
| O=C(/C(=C/c1ccc([N+](=O)[O-])cc1)SCc1ccc(Cl)cc1)c1ccc(F)cc1 | 13.9 µM |

# GI50 measured on A498 renal for item O=[N+]([O-])c1ccc(C2CC(c3ccccc3)=Nc3ccccc3S2)cc1 (stereo not drawn) = 59.8 µM

###

Tested on: T-47D breast
assay-name: NCI tumour cell line growth inhibition, 48 h
measured-endpoint: TGI (µM)
Give your result in µM as a bare value.

Worked cases, TGI given:
| smiles-text | test-system | measured-endpoint | readout-unit | obs-value |
| --- | --- | --- | --- | --- |
| Cc1ccc(-c2cc3c4c(nc5ccccc53)C(=O)c3cccnc3-c4n2)cc1 | T-47D breast | TGI | µM | 99.4 |
| O=C(Nc1ccc(-n2cc(-c3ccncc3)c(-c3ccc(O)c(Cl)c3)n2)cc1)Nc1ccc(Cl)c(C(F)(F)F)c1 | T-47D breast | TGI | µM | 64.1 |

Entry "C=C(C)[C@@]1(O)CCCC[C@@H]1CC(Sc1ccccc1)Sc1ccccc1" , TGI reported as 29
